Data credit: ChEMBL document CHEMBL5321272

Reported values: IC50 for Receptor-type tyrosine-protein kinase FLT3 (Homo sapiens, UniProt P36888, D835Y), one per item.
Numeric only. Scale: nM

Below, 6 compounds whose answers are already recorded.
>  <CPD SMILES>
CC(=O)N1CCc2nc(Nc3ncc(C(F)(F)F)c(N[C@H]4CC[C@@H](N)CC4)n3)ccc2C1

>  <MEASURED ON>
Receptor-type tyrosine-protein kinase FLT3 (Homo sapiens, UniProt P36888, D835Y)

>  <IC50 / nM>
61.4

$$$$
>  <CPD SMILES>
CC(C)(O)CC(=O)N1CCc2cc(Nc3ncc(C(F)(F)F)c(N[C@@H]4CCCC[C@@H]4N)n3)ccc2C1

>  <MEASURED ON>
Receptor-type tyrosine-protein kinase FLT3 (Homo sapiens, UniProt P36888, D835Y)

>  <IC50 / nM>
224

$$$$
>  <CPD SMILES>
CC(C)(O)CC(=O)N1CCc2cc(Nc3ncc(C(F)(F)F)c(NCCCCN)n3)ccc2C1

>  <MEASURED ON>
Receptor-type tyrosine-protein kinase FLT3 (Homo sapiens, UniProt P36888, D835Y)

>  <IC50 / nM>
1.5

$$$$
>  <CPD SMILES>
Cn1cnc2cc(Nc3ncc(C(F)(F)F)c(N[C@H]4CC[C@@H](N)CC4)n3)ccc2c1=O

>  <MEASURED ON>
Receptor-type tyrosine-protein kinase FLT3 (Homo sapiens, UniProt P36888, D835Y)

>  <IC50 / nM>
8.8

$$$$
>  <CPD SMILES>
CC(=O)N1Cc2ccc(Nc3ncc(C(F)(F)F)c(N[C@H]4CC[C@@H](N)CC4)n3)cc2C1

>  <MEASURED ON>
Receptor-type tyrosine-protein kinase FLT3 (Homo sapiens, UniProt P36888, D835Y)

>  <IC50 / nM>
1.63

$$$$
>  <CPD SMILES>
N[C@H]1CC[C@@H](Nc2nc(Nc3ccc4c(c3)CN(C(=O)CO)C4)ncc2C(F)(F)F)CC1

>  <MEASURED ON>
Receptor-type tyrosine-protein kinase FLT3 (Homo sapiens, UniProt P36888, D835Y)

>  <IC50 / nM>
1.06

$$$$

Next item in the queue.
What IC50 value was documented for this compound, `Cn1ncc2cc(Nc3ncc(C(F)(F)F)c(N[C@H]4CC[C@@H](N)CC4)n3)ccc2c1=O` ?
4.22
